B1: C8orf76 (parent)
chain: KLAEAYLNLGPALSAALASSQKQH

# Variants of: B1
# PROTOCOL DETAILS: protein stability index of a GFP-peptide fusion (GPS, HEK-293T) (PSI 1-6); higher = more stable;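 further: lentivirally expressed fusions sorted by FACS into six bins by GFP to DsRed ratio, PSI derived from sequencing read proportions per bin multiplied by bin number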
# CONDITION CONTEXT: c terminus: a fixed tail appended

MUTATION DESCRIPTOR | protein stability index
S14P | 1.81
G10E | 1.87
Q21E | 1.78
G10F | 2.51
Q23P | 2.57
